# ASSAY_NAME: Quantitative highthroughput screen to assess conditional lethalithy of SEM cells grown in Human Plasma-Like Medium with dialyzed fetal bovine serum (HPLM+ds) (AID 1963882); also: nearly all actives have a fitted effect of over 35% in size
# PARTICULARS: SEM B-ALL cells in HPLM+ds, CellTiter-Glo viability, 48 h; series mostly up to 45.8 µM
Records with an inconclusive call do not appear. Calls of active or inactive are those of the source. Calls follow the shape of the dose curve; as a rule, active = well fitted cell-killing curve with a large enough effect; inconclusive = small, poorly fitted or top-dose-only effect, or effect the other way; inactive = no such curve, though single readings can be large or run the other way.
Your response should consist of one outcome taken from active, inactive

Look over these answered cases.
{"COMPOUND": "C[C@@H]1CN(CC(=O)N2CC(C)(C)c3ncc(Cc4ccc(F)cc4)cc32)[C@@H](CN2CCOC[C@H]2C)CN1", "CLASS_NAME": "inactive"}
{"COMPOUND": "OCc1ccc(-c2ccc(-c3ccc(CO)s3)o2)s1", "CLASS_NAME": "inactive"}
{"COMPOUND": "Cc1cc(-c2ccc(CC(=O)Nc3ccc(-c4cccnc4)cc3)cc2)ccn1", "CLASS_NAME": "active"}

Per the assay record, what outcome was assigned to CCNC(=O)CCCC=CC[C@@H]1[C@H](C=CC(O)CCc2ccccc2)[C@@H](O)C[C@@H]1O (some centres undefined) ? inactive

And what about the compound `CCOC(=O)[C@H](CCc1ccccc1)N[C@H]1CS[C@H](c2cccs2)CN(CC(=O)O)C1=O` ? inactive

What do you have for `CCCCc1nc2cc(C=CC(=O)NO)ccc2n1CCN(CC)CC` ? active

* * *

# ASSAY_NAME: Cellular viability qHTS for adrenocortical cancer (ACC) cell line NCI-H295R (AID 1963990); also: nearly all actives have a fitted effect of over 60% in size
# PARTICULARS: CellTiter-Glo ATP luminescence, 48 h; series mostly up to 46.1 µM
Records with an inconclusive call do not appear. The source made the active and inactive calls. Calls follow the shape of the dose curve; as a rule, active = well fitted cell-killing curve with a large enough effect; inconclusive = small, poorly fitted or top-dose-only effect; inactive = flat fitted curve, though single readings scatter.
Please answer using one outcome listed in active, inactive

Answered examples (9):
{"SMILES_STRUCTURE": "Nc1nc(=O)n([C@@H]2O[C@H](CO)[C@@H](O)[C@@H]2F)cc1I", "CLASS_NAME": "inactive"}
{"SMILES_STRUCTURE": "CC(C)(C)COc1ccc(-n2cc(C(=O)O)cn2)cc1C#N", "CLASS_NAME": "inactive"}
{"SMILES_STRUCTURE": "c1ccc2c(c1)CCc1ccccc1N2", "CLASS_NAME": "inactive"}
{"SMILES_STRUCTURE": "CCCCN(CCCC)C(=O)CN1C[C@H](c2ccc3c(c2)OCO3)[C@@H](C(=O)O)[C@@H]1c1ccc(OC)cc1", "CLASS_NAME": "inactive"}
{"SMILES_STRUCTURE": "CCCC(=O)O[C@]1(C(=O)COC(=O)CC)CC[C@H]2[C@@H]3CCC4=CC(=O)CC[C@]4(C)[C@H]3[C@@H](O)C[C@@]21C", "CLASS_NAME": "inactive"}
{"SMILES_STRUCTURE": "CC(C)(C)c1cc(C(=O)O)c(NC(=O)Nc2ccc3[nH]ncc3c2)s1", "CLASS_NAME": "inactive"}
{"SMILES_STRUCTURE": "C[C@H](CCC(=O)O)[C@H]1CC[C@H]2[C@@H]3C(=O)C[C@@H]4CC(=O)CC[C@]4(C)[C@H]3CC(=O)[C@]12C", "CLASS_NAME": "inactive"}
{"SMILES_STRUCTURE": "Cn1cc(-c2ccc(F)c(C(F)(F)F)c2)nc1C1CCN(c2ncnc3[nH]ncc23)CC1", "CLASS_NAME": "inactive"}
{"SMILES_STRUCTURE": "O=C(Cn1ccnc1[N+](=O)[O-])NCCO", "CLASS_NAME": "inactive"}

Recorded call for `CN1CCC(CNc2ccc3ncc(-c4cccc(OC(F)(F)F)c4)n3n2)CC1` ? active
